experimental-target: T1, human TREM2 (human, UniProt Q9NZC2 19-174, limits assumed)
T1 sequence: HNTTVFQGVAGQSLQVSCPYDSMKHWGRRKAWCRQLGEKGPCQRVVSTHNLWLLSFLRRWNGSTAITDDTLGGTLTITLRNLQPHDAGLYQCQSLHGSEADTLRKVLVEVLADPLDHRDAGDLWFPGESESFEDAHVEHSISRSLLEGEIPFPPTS
experiment-description: yeast-displayed Fab FACS, 1st screen 110 nM
Entries get a class label from measured binding signal fold over 6E7 parental. See ranges: class 0: < 0.3 fold; class 1: ≥ 0.3 fold and < 0.7 fold; class 2: ≥ 0.7 fold

binder="V11 (Fab, V domains shown) VH: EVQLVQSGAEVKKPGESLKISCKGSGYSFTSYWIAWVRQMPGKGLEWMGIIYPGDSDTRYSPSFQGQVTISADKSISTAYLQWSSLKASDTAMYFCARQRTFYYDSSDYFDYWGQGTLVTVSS VL: DIQMTQSPSSVSASVGDRVTITCRASQGISSWLAWYQQKPGKAPKLLIYAASSLQNGVPSRFSGSGSGTDFTLTISSLQPEDFATYFCQQAASFPRTFGQGTKLEIK" category="class 2"

Q: Returns: class label. Input: V47 (Fab, V domains shown) VH: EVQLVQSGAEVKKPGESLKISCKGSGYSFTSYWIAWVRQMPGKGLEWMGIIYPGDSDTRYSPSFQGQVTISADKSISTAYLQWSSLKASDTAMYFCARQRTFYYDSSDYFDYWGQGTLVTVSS VL: DIQMTQSPSSVSASVGDRVTITCRASQGISSWLAWYQQKPGKAPKLLIYAASSLQNGVPSRFSGSGSGTDFTLTISSLQPEDFATYFCQQADSFPMTFGQGTKLEIK
Ans: class 1

Q: Returns: class label. Input: V83 (Fab, V domains shown) VH: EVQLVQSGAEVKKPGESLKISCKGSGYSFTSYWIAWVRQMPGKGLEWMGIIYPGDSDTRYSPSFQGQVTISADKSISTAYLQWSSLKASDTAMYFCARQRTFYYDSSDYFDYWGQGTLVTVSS VL: DIQMTQSPSSVSASVGDRVTITCRASQGISSWLAWYQQKPGKAPKLLIYAASSLQNGVPSRFSGSGSGTDFTLTISSLQPEDFATYFCQQAVSFPRTFGQGTKLEIK
Ans: class 0

Q: Returns: class label. Input: V67 (Fab, V domains shown) VH: EVQLVQSGAEVKKPGESLKISCKGSGYSFTSYWIAWVRQMPGKGLEWMGMIYPGDSDTRYSPSFQGQVTISADKSISTAYLQWSSLKASDTAMYFCARQRTFYYDSSDYFDYWGQGTLVTVSS VL: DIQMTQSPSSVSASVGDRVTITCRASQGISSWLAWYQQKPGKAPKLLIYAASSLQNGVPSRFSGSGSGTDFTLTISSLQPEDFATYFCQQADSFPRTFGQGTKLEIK
Ans: class 2

Q: Returns: class label. Input: V94 (Fab, V domains shown) VH: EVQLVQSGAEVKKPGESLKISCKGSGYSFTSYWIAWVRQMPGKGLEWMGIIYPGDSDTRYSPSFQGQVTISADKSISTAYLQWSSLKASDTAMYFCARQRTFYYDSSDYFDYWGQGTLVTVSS VL: DIQMTQSPSSVSASVGDRVTITCRASQGISSWLAWYQQKPGKAPKLLIYAAASLQNGVPSRFSGSGSGTDFTLTISSLQPEDFATYFCQQADSFPRTFGQGTKLEIK
Ans: class 1

Q: Returns: class label. Input: V7 (Fab, V domains shown) VH: EVQLVQSGAEVKKPGESLKISCKGSGYSFTSEWIAWVRQMPGKGLEWMGIIYPGDSDTRYSPSFQGQVTISADKSISTAYLQWSSLKASDTAMYFCARQRTFYYDSSDYFDYWGQGTLVTVSS VL: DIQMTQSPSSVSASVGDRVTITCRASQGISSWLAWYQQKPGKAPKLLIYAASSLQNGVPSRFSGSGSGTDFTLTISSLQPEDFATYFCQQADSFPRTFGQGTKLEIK
Ans: class 0

Q: Returns: class label. Input: V10 (Fab, V domains shown) VH: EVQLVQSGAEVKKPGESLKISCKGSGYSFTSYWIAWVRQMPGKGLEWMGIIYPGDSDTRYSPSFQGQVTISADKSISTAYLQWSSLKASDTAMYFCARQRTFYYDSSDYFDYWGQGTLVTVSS VL: DIQMTQSPSSVSASVGDRVTITCRASQGISSWLAWYQQKPGKAPKLLIYSASSLQNGVPSRFSGSGSGTDFTLTISSLQPEDFATYFCQQADSFPRTFGQGTKLEIK
Ans: class 2

Q: Returns: class label. Input: V92 (Fab, V domains shown) VH: EVQLVQSGAEVKKPGESLKISCKGSGYSFTSYWIAWVRQMPGKGLEWMGIIYPGDSDTRYSPSFQGQVTISADKSISTAYLQWSSLKASDTAMYFCARQRTFHYDSSDYFDYWGQGTLVTVSS VL: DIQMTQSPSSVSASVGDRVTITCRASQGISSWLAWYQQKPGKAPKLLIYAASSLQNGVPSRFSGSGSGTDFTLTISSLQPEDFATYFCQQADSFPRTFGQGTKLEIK
Ans: class 0

Q: Returns: class label. Input: V9 (Fab, V domains shown) VH: EVQLVQSGAEVKKPGESLKISCKGSGYSFTSYWIAWVRQMPGKGLEWMGIIYPGDSDTRYSPSFQGQVTISADKSISTAYLQWSSLKASDTAMYFCARQRGFYYDSSDYFDYWGQGTLVTVSS VL: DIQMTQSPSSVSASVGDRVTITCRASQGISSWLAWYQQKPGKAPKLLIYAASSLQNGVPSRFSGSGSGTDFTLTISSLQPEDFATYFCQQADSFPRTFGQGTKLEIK
Ans: class 1
